system: ALP in NHAC (normal human articular chondrocytes); test: Alkaline Phosphatase (ALP) activity assay: ALP staining and quantitation in NHACs (prevention of chondrocyte hypertrophy); assay type: cell-based; settings: Chondrocyte, 288 h, human IL-1 beta 10 ng/mL, 12 days, read-out: ALP in NHAC (% Efficacy)
Value Kind: Emax
Note: state the figure and append the unit.

Consider the following illustrative entries.
1. Cc1ccc(C(F)(F)F)cc1NC(=O)[C@]12C[C@@]1(c1cn(C)nc1C(F)(F)F)[C@H]1O[C@@H]2C[C@@H]1O (racemic) | 23%
2. Cn1cc([C@@]23C[C@]2(C(=O)Nc2cc(C(F)(F)F)cc(Cl)n2)[C@H]2C[C@H](O)[C@@H]3O2)c(C(F)(F)F)n1 (racemic) | 37%

Turning now to a further record.
Per the reported ALP in NHAC (normal human articular chondrocytes) data, Cn1cc([C@@]23C[C@]2(C(=O)Nc2ccc(N4CCOCC4)c(C(F)(F)F)c2)[C@H]2C[C@H](O)[C@@H]3O2)c(C(F)(F)F)n1 (racemic) has Emax of 28%
